Items are presented alongside their recorded viscosity.
- EXPERIMENT_NOTES: xn = mol fraction of the nth substance listed
- MEASUREMENT_SETUP: 308.15 K; 101.32 kPa; Liquid; x2 = 0.4
Respond with the bare value in mPa·s.

Solved entries (count: 3):
>>> print(df.to_string())
                          compound  reading_unit  value_measured
0     CCCCCl [1-chlorobutane] + CO         mPa·s           0.393
1   CCCCCl [1-chlorobutane] + CCCO         mPa·s           0.498
2  CCCCCl [1-chlorobutane] + CCCCO         mPa·s            0.57

Consider now this further compound.
viscosity in this record for CCCCCl [1-chlorobutane] + CCO : 0.43

====

Items are presented alongside their recorded refractive index.
- EXPERIMENT_NOTES: refractive index (Na D-line) (dimensionless); xn = mol fraction of the nth substance listed
- MEASUREMENT_SETUP: 308.15 K; 101.32 kPa; Liquid; x2 = 0.8
// no unit string in output, number only

Solved entries (count: 3):
>>> df
                         molecule  observation_type  value_measured
0    CCCCCl [1-chlorobutane] + CO  refractive index          1.3478
1   CCCCCl [1-chlorobutane] + CCO  refractive index          1.3661
2  CCCCCl [1-chlorobutane] + CCCO  refractive index          1.3824

Consider now this further molecule.
refractive index in this record for CCCCCl [1-chlorobutane] + CCCCO : 1.3933

====

- EXPERIMENT_NOTES: xn = mol fraction of the nth substance listed
- MEASUREMENT_SETUP: 288.15 K; 101.32 kPa; Liquid; x2 = 0.05
OBSERVATION_TYPE: viscosity (mPa·s)
Respond with the bare value in mPa·s.

Solved entries (count: 3):
>>> df
                          compound  value_measured
0    CCCCCl [1-chlorobutane] + CCO           0.475
1  CCCCCl [1-chlorobutane] + CCCCO            0.49
2   CCCCCl [1-chlorobutane] + CCCO           0.473

viscosity in this record for CCCCCl [1-chlorobutane] + CO : 0.463

====

Items are presented alongside their recorded viscosity.
- EXPERIMENT_NOTES: xn = mol fraction of the nth substance listed
- MEASUREMENT_SETUP: 308.15 K; 101.32 kPa; Liquid; x2 = 0.9
Respond with the bare value in mPa·s.

Solved entries (count: 3):
>>> df
                          compound  observation_type  value_measured
0    CCCCCl [1-chlorobutane] + CCO         viscosity           0.765
1     CCCCCl [1-chlorobutane] + CO         viscosity           0.457
2  CCCCCl [1-chlorobutane] + CCCCO         viscosity           1.584

viscosity in this record for CCCCCl [1-chlorobutane] + CCCO : 1.229

====

Items are presented alongside their recorded viscosity.
- EXPERIMENT_NOTES: xn = mol fraction of the nth substance listed
- MEASUREMENT_SETUP: 288.15 K; 101.32 kPa; Liquid; x2 = 0.3
Respond with the bare value in mPa·s.

viscosity in this record for CCCCCl [1-chlorobutane] + CCCO : 0.587

viscosity in this record for CCCCCl [1-chlorobutane] + CO : 0.478

viscosity in this record for CCCCCl [1-chlorobutane] + CCO : 0.529

viscosity in this record for CCCCCl [1-chlorobutane] + CCCCO : 0.655

====

- EXPERIMENT_NOTES: refractive index (Na D-line) (dimensionless); xn = mol fraction of the nth substance listed
- MEASUREMENT_SETUP: 308.15 K; 101.32 kPa; Liquid; x2 = 0.05
OBSERVATION_TYPE: refractive index
// no unit string in output, number only

refractive index in this record for CCCCCl [1-chlorobutane] + CCO : 1.3925

refractive index in this record for CCCCCl [1-chlorobutane] + CCCCO : 1.3936

refractive index in this record for CCCCCl [1-chlorobutane] + CCCO : 1.3931

refractive index in this record for CCCCCl [1-chlorobutane] + CO : 1.3928

====

- EXPERIMENT_NOTES: xn = mol fraction of the nth substance listed
- MEASUREMENT_SETUP: 308.15 K; 101.32 kPa; Liquid; x2 = 0.8
± gives the expanded uncertainty stated by the source.
OBSERVATION_TYPE: mass density
Report the figure along with its unit, number first.

mass density in this record for CCCCCl [1-chlorobutane] + CCCCO : 814.1 ± 0.9 kg/m3

mass density in this record for CCCCCl [1-chlorobutane] + CCO : 804.7 ± 0.9 kg/m3

mass density in this record for CCCCCl [1-chlorobutane] + CO : 811 ± 0.9 kg/m3

mass density in this record for CCCCCl [1-chlorobutane] + CCCO : 811.5 ± 0.9 kg/m3

====

Items are presented alongside their recorded viscosity.
- EXPERIMENT_NOTES: xn = mol fraction of the nth substance listed
- MEASUREMENT_SETUP: 308.15 K; 101.32 kPa; Liquid; x2 = 0.05
Respond with the bare value in mPa·s.

>>> df
                          molecule  observation_type  value_measured
0  CCCCCl [1-chlorobutane] + CCCCO         viscosity           0.388
1    CCCCCl [1-chlorobutane] + CCO         viscosity           0.384
2   CCCCCl [1-chlorobutane] + CCCO         viscosity           0.384

viscosity in this record for CCCCCl [1-chlorobutane] + CO : 0.375

====

- EXPERIMENT_NOTES: xn = mol fraction of the nth substance listed
- MEASUREMENT_SETUP: 298.15 K; 101.32 kPa; Liquid; x2 = 0.5
Items are presented alongside their recorded mass density.
Respond with the bare value in kg/m3.

Solved entries (count: 3):
>>> df
                         molecule  reading_unit  value_measured
0   CCCCCl [1-chlorobutane] + CCO         kg/m3           845.2
1  CCCCCl [1-chlorobutane] + CCCO         kg/m3           846.1
2    CCCCCl [1-chlorobutane] + CO         kg/m3           852.4

Consider now this further molecule.
mass density in this record for CCCCCl [1-chlorobutane] + CCCCO : 845.3

====

- EXPERIMENT_NOTES: xn = mol fraction of the nth substance listed
- MEASUREMENT_SETUP: 308.15 K; 101.32 kPa; Liquid; x2 = 0.9
± gives the expanded uncertainty stated by the source.
OBSERVATION_TYPE: mass density
Report the figure along with its unit, number first.

Solved entries (count: 3):
In [3]: df
Out[3]:
                         compound     value_measured
0    CCCCCl [1-chlorobutane] + CO    796 ± 0.9 kg/m3
1  CCCCCl [1-chlorobutane] + CCCO    802 ± 0.9 kg/m3
2   CCCCCl [1-chlorobutane] + CCO  791.7 ± 0.9 kg/m3

mass density in this record for CCCCCl [1-chlorobutane] + CCCCO : 806.3 ± 0.9 kg/m3

====

- EXPERIMENT_NOTES: refractive index (Na D-line) (dimensionless); xn = mol fraction of the nth substance listed
- MEASUREMENT_SETUP: 298.15 K; 101.32 kPa; Liquid; x2 = 0.7
OBSERVATION_TYPE: refractive index
// no unit string in output, number only

refractive index in this record for CCCCCl [1-chlorobutane] + CO : 1.3628

refractive index in this record for CCCCCl [1-chlorobutane] + CCCO : 1.3888

refractive index in this record for CCCCCl [1-chlorobutane] + CCCCO : 1.3978

refractive index in this record for CCCCCl [1-chlorobutane] + CCO : 1.3759

====

Items are presented alongside their recorded refractive index.
- EXPERIMENT_NOTES: refractive index (Na D-line) (dimensionless); xn = mol fraction of the nth substance listed
- MEASUREMENT_SETUP: 288.15 K; 101.32 kPa; Liquid; x2 = 0.8
// no unit string in output, number only

Solved entries (count: 3):
In [3]: df
Out[3]:
                         compound  observation_type  value_measured
0    CCCCCl [1-chlorobutane] + CO  refractive index          1.3579
1   CCCCCl [1-chlorobutane] + CCO  refractive index          1.3756
2  CCCCCl [1-chlorobutane] + CCCO  refractive index          1.3914

Consider now this further compound.
refractive index in this record for CCCCCl [1-chlorobutane] + CCCCO : 1.4019
